target: B-Raf (V600E)-kinase (Homo sapiens, UniProt P15056, V600E); assay: Kinase test B-Raf (V600E); conditions: 1 h incubation with kinase before start, 250 μM ATP, biotinylated MEK1 substrate
Sequence (P15056 whole entry V600E): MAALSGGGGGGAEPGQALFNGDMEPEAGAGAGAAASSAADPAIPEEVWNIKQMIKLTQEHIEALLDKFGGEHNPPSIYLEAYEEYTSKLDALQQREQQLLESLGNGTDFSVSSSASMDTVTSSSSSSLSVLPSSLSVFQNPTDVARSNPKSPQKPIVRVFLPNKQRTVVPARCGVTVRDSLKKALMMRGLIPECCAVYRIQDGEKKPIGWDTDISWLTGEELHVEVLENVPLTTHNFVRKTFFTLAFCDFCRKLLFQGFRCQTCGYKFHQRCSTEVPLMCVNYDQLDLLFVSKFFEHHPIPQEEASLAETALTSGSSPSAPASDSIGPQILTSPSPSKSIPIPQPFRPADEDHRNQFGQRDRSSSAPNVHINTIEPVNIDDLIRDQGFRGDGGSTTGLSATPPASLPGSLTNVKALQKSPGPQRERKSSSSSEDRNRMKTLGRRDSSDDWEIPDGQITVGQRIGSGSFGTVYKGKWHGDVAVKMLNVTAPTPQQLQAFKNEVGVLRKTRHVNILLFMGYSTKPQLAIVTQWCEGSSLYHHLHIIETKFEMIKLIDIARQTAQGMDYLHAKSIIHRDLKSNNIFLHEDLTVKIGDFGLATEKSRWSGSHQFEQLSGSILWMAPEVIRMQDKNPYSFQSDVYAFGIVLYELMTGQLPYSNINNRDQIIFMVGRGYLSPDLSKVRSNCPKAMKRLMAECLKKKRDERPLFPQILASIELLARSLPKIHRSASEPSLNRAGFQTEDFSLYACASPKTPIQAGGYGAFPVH
measured-endpoint: IC50 (nM)

CCCN1CCN(c2cncc(-c3cn(-c4cc(NC(=O)c5cc(C)n(C(C)C)n5)cnc4C)nn3)c2)CC1    8

a: CCN1CCN(c2cncc(-c3cn(-c4cc(NC(=O)c5cc(C6CC6)n(C(C)(C)C)n5)cnc4C)nn3)c2)CC1
b: Cc1ncc(NC(=O)c2cc(C)n(C(C)C)n2)cc1-n1cc(-c2cncc(N3CCN(C(C)C)CC3)c2)nn1
c: CCN1CCN(c2cncc(-c3cn(-c4cc(NC(=O)c5ccc(C(C)(C)C)o5)cnc4C)nn3)c2)CC1
*Q* Reorder: IC50, max to min. The labels, placed in the requested order, form the answer.
*A* a, b, c
(a: 22 nM, b: 6 nM, c: 3 nM)

###

molecular target: B-Raf (V600E)-kinase (Homo sapiens, UniProt P15056, V600E); experiment: Kinase test B-Raf (V600E); details: 1 h incubation with kinase before start, 250 μM ATP, biotinylated MEK1 substrate
pIC50: −log10 of the molar value.
measured-endpoint: pIC50

Cc1ncc(NC(=O)c2ccc(C(C)(C)C)o2)cc1-n1cc(-c2cncc(N3CCN(C(C)(C)C)CC3)c2)nn1    8.40

I: Cc1ncc(NC(=O)c2ccc(C(C)(C)C)o2)cc1-n1cc(-c2cncc(N3CCN(CC4CC4)CC3)c2)nn1
II: Cc1ncc(NC(=O)c2cc(C)n(C(C)C)n2)cc1-n1cc(-c2cncc(N3CCN(C4CC4)CC3)c2)nn1
III: Cc1ncc(NC(=O)c2ccc(C(C)(C)C)s2)cc1-n1cc(-c2cncc(N3CCN(CC4CC4)CC3)c2)nn1
*Q* Reorder: pIC50, max to min. The labels, placed in the requested order, form the answer.
*A* I, III, II

###

biological target: B-Raf (V600E)-kinase (Homo sapiens, UniProt P15056, V600E); assay: Kinase test B-Raf (V600E); details: 1 h incubation with kinase before start, 250 μM ATP, biotinylated MEK1 substrate
measured-endpoint: IC50 (nM)

CCc1cc(C(=O)Nc2cnc(C)c(-n3cc(-c4cncc(N5CCN(C)CC5)c4)nn3)c2)nn1C(C)(C)C    15

A: Cc1ncc(NC(=O)c2cc(C)n(C(C)(C)C)n2)cc1-n1cc(-c2cncc(N3CCN(CC4CC4)CC3)c2)nn1
B: CCCc1cc(C(=O)Nc2cnc(C)c(-n3cc(-c4cncc(N5CCN(C6CC6)CC5)c4)nn3)c2)nn1C(C)(C)C
C: CCN1CCN(c2cncc(-c3cn(-c4cc(NC(=O)c5cc(C)n(C(C)(C)C)n5)cnc4C)nn3)c2)CC1
*Q* Your job: order these 3 records by IC50, ascending. The labels, placed in the requested order, form the answer.
*A* C, A, B

###

target: B-Raf (V600E)-kinase (Homo sapiens, UniProt P15056, V600E); assay: Kinase test B-Raf (V600E); conditions: 1 h incubation with kinase before start, 250 μM ATP, biotinylated MEK1 substrate
measured-endpoint: IC50 (nM)

Recorded IC50, per entry:
Cc1ncc(NC(=O)c2cc(C3CC3)n(C(C)(C)C)n2)cc1-n1cc(-c2cncc(N3CCN(C)CC3)c2)nn1    16
CCOCCN1CCN(c2cncc(-c3cn(-c4cc(NC(=O)c5ccc(C(C)(C)C)o5)cnc4C)nn3)c2)CC1    5

1: Cc1ncc(NC(=O)c2cc(C)n(C(C)(C)C)n2)cc1-n1cc(-c2cncc(N3CCCN(C)CC3)c2)nn1
2: COCCCN1CCN(c2cncc(-c3cn(-c4cc(NC(=O)c5cc(C)n(C(C)(C)C)n5)cnc4C)nn3)c2)CC1
*Q* Which of these two has the smaller recorded IC50: 1 or 2 ? API: response body contains the label of the selected item.
*A* 1
(1: 9 nM, 2: 14 nM)

I: CCCN1CCN(c2cncc(-c3cn(-c4cc(NC(=O)c5cc(C(C)C)n(C(C)(C)C)n5)cnc4C)nn3)c2)CC1
II: CCc1cc(C(=O)Nc2cnc(C)c(-n3cc(-c4cncc(N5CCN(CC)CC5)c4)nn3)c2)nn1C(C)(C)C
III: CCc1cc(C(=O)Nc2cnc(C)c(-n3cc(-c4cncc(N5CCN(C6CC6)CC5)c4)nn3)c2)nn1C(C)(C)C
*Q* Your job: order these 3 records by IC50, ascending. The labels, placed in the requested order, form the answer.
*A* II, I, III
(II: 12 nM, I: 26 nM, III: 55 nM)
